Numbers sourced from PubChem BioAssay AID1963838.

viability, T/C values for the compounds below.
- Test system: 855422-203-R-J1-PDC complex spheroid viability;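 also: spheroids exposed to compounds for seven days before readout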
- protocol: Anticancer human tumor 855422-203-R-J1-PDC patient-derived bladder carcinoma cell line growth inhibition [POLQ]
- condition: second compound 1 µM; first compound 0.0316 µM; stronger effect = lower value
Express your answer in %, writing the number without its unit.

For orientation, consider the following solved cases.
CC1COCCN1c1cc(C2(O)CC3CCC(C2)O3)c2cnn(-c3ccn[nH]3)c2n1 (stereo unspecified) + COC1C(OC(N)=O)C(O)C(Oc2ccc3c(O)c(NC(=O)c4ccc(O)c(CC=C(C)C)c4)c(=O)oc3c2C)OC1(C)C : 109
COc1cc(C2c3cc4c(cc3C(OC3OC5COC(C)OC5C(O)C3O)C3COC(=O)C23)OCO4)cc(OC)c1O (stereo unspecified) + COC1C(OC(N)=O)C(O)C(Oc2ccc3c(O)c(NC(=O)c4ccc(O)c(CC=C(C)C)c4)c(=O)oc3c2C)OC1(C)C : 107

Request the reported viability, T/C associated with C=CCn1c(=O)c2cnc(Nc3ccc(N4CCN(C)CC4)cc3)nc2n1-c1cccc(C(C)(C)O)n1 + COC1C(OC(N)=O)C(O)C(Oc2ccc3c(O)c(NC(=O)c4ccc(O)c(CC=C(C)C)c4)c(=O)oc3c2C)OC1(C)C
102

// lookup viability, T/C for O=C(Nc1ccc(O)c(NS(=O)(=O)c2ccc(F)cc2)c1)c1ccc(-c2ccccc2)cc1 + Cc1cccc(N(C)C(=O)C2C(O)CCN2c2nc(C)cc(C(F)(F)F)c2C#N)c1
97.5

Form field: reported viability, T/C of C=CC(=O)N1CCN(c2nc(=O)n(-c3c(C)ccnc3C(C)C)c3nc(-c4c(O)cccc4F)c(F)cc23)C(C)C1 (stereo unspecified) + COC1C(OC(N)=O)C(O)C(Oc2ccc3c(O)c(NC(=O)c4ccc(O)c(CC=C(C)C)c4)c(=O)oc3c2C)OC1(C)C
119

Fill in: viability, T/C of C=CC(=O)N1CCN(c2nc(=O)n(-c3c(C)ccnc3C(C)C)c3nc(-c4c(O)cccc4F)c(F)cc23)C(C)C1 (stereo unspecified) + Cc1cccc(N(C)C(=O)C2C(O)CCN2c2nc(C)cc(C(F)(F)F)c2C#N)c1 is ___
96.4
